The reported measurements were obtained from patent US20260265403A1.

Biological target: T1, Human CD24 (human, UniProt P25063 27-59, limits assumed)
T1 chain (looked up): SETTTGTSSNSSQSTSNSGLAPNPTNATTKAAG
Assay: SPR affinity ranking, 1:1 binding, analyte conc. 19.71 nM
Would you mind telling me the reported Kd of each entry?
// note: answer is a bare numeric in nM

Q) Which Kd value is on record for Antibody No 8, lead clone of 4451H (HC T59Y; LC K27A, T97I) (antibody, V domains shown) VH: QVQLVQSGAEVKKPGASVKVSCKASGYDFTGYHMNWVRQAPGQGLEWMGEINPITSDKYFNQKFKSRVTMTRDTSISTAYMELSRLRSDDTAVYYCARRDYGTSLDYWGQGTTVTVSS VL: DIQLTQSPSFLSASVGDRVTITCRASASISKYLAWYQQKPGKAPKLLIYAGSTLHSGIPSRFRGSGSGTEFTLTISSLQPEDFATYYCQQHNEYPIIFGQGTKLEIK ?
A) 15.8

Q) Dear colleague, I am looking for the recorded Kd of the following binder: Antibody No 2, lead clone of 4451H (HC N35G; LC S30K, T97I) (antibody, V domains shown) VH: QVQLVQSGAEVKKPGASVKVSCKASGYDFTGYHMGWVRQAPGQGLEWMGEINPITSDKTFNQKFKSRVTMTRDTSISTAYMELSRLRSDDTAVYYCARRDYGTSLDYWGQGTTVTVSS VL: DIQLTQSPSFLSASVGDRVTITCRASKSIKKYLAWYQQKPGKAPKLLIYAGSTLHSGIPSRFRGSGSGTEFTLTISSLQPEDFATYYCQQHNEYPIIFGQGTKLEIK
A) 8.78

Q) Given Antibody No 18, lead clone of 4451H (HC N35G, T59Y; LC T97I) (antibody, V domains shown) VH: QVQLVQSGAEVKKPGASVKVSCKASGYDFTGYHMGWVRQAPGQGLEWMGEINPITSDKYFNQKFKSRVTMTRDTSISTAYMELSRLRSDDTAVYYCARRDYGTSLDYWGQGTTVTVSS VL: DIQLTQSPSFLSASVGDRVTITCRASKSISKYLAWYQQKPGKAPKLLIYAGSTLHSGIPSRFRGSGSGTEFTLTISSLQPEDFATYYCQQHNEYPIIFGQGTKLEIK , state its recorded Kd.
A) 8.83

Q) # query: Kd of entry Antibody No 1, lead clone of 4451H (HC N35G; LC K27A, T97I) (antibody, V domains shown) VH: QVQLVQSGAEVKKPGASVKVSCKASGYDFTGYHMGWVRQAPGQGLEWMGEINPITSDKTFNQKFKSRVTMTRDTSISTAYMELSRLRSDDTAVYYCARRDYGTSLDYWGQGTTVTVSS VL: DIQLTQSPSFLSASVGDRVTITCRASASISKYLAWYQQKPGKAPKLLIYAGSTLHSGIPSRFRGSGSGTEFTLTISSLQPEDFATYYCQQHNEYPIIFGQGTKLEIK
A) 10.5
